- PROCEDURE DETAILS: Food-effect crossover study, plasma and urine PK after single 20 mg amifampridine phosphate in healthy subjects (Examples 10, 12)
- Format: in vivo, human
- APPLIED CONDITIONS: human, plasma, oral, 20 mg, fasted; read-out: AUC0-t, individual subject range
MEASURED ENDPOINT: AUC(0-t)

QUERY: Reported AUC(0-t), compound Nc1ccncc1N [3,4-DAP, 3,4-diaminopyridine] : ____
RESULT: 20.6 to 267 ng·h/mL

* * *

- PROCEDURE DETAILS: Example 18 Part 2: multiple dose PK (20 mg QID) of 3,4-DAP and 3-N-acetyl metabolite in slow and fast acetylators
- Assay type: in vivo, human
- APPLIED CONDITIONS: both sexes, human, plasma, oral, 20 mg, Day 1, Dose 2, slow acetylators, 20 mg QID; read-out: Mean Tmax
- Experimental: The following method was used to analyze concentrations of 3,4-diaminopyridine and N-(4-aminopyridin-3-yl)acetamide in plasma and urine samples for the experiments in Example 18. […] Samples were analyzed by using HPLC with positive ion electrospray MS/MS detection. […] The LC/MS/MS method was validated to quantify 3,4-DAP in human plasma in the linear calibration range of 0.500 to 500 ng/mL and from 1.00 to 1000 ng/mL for the 3-N-acetyl metabolite. […]
MEASURED ENDPOINT: Tmax (h)
Write it as a number; the unit h goes unstated.

QUERY: Reported Tmax, compound Nc1ccncc1N : ____
RESULT: 1.14

* * *

- PROCEDURE DETAILS: Example 18 Part 2: multiple dose PK (20 mg QID) of 3,4-DAP and 3-N-acetyl metabolite in slow and fast acetylators
- Assay type: in vivo, human
- APPLIED CONDITIONS: both sexes, human, plasma, oral, 20 mg, Day 3, Dose 3, fast acetylators, 20 mg QID; read-out: Mean Cmax
MEASURED ENDPOINT: Cmax (ng/mL)
Write it as a number; the unit ng/mL goes unstated.

QUERY: Reported Cmax, molecule Nc1ccncc1N : ____
RESULT: 21.9

* * *

- PROCEDURE DETAILS: Example 18 Part 2: multiple dose PK (20 mg QID) of 3,4-DAP and 3-N-acetyl metabolite in slow and fast acetylators
- Type: in vivo, human
- APPLIED CONDITIONS: both sexes, human, plasma, oral, 20 mg, Day 1, Dose 1, slow acetylators, 20 mg QID; read-out: Mean Cmax
MEASURED ENDPOINT: Cmax (ng/mL)
Write it as a number; the unit ng/mL goes unstated.

QUERY: Reported Cmax, molecule Nc1ccncc1N : ____
RESULT: 74.8

* * *

- PROCEDURE DETAILS: Example 18 Part 2: multiple dose PK (20 mg QID) of 3,4-DAP and 3-N-acetyl metabolite in slow and fast acetylators
- Type: in vivo, human
- APPLIED CONDITIONS: both sexes, human, plasma, oral, 20 mg, Day 3, Dose 1, fast acetylators, 20 mg QID; read-out: Mean Cmax
MEASURED ENDPOINT: Cmax (ng/mL)
Write it as a number; the unit ng/mL goes unstated.

QUERY: Reported Cmax, compound Nc1ccncc1N : ____
RESULT: 24

* * *

- PROCEDURE DETAILS: Example 18 Part 2: multiple dose PK (20 mg QID) of 3,4-DAP and 3-N-acetyl metabolite in slow and fast acetylators
- Type: in vivo, human
- APPLIED CONDITIONS: both sexes, human, plasma, oral, 20 mg, Day 4, 20 mg single dose, fast acetylators; read-out: Mean AUC0-4
MEASURED ENDPOINT: AUC(0-t) (ng·h/mL)
Write it as a number; the unit ng·h/mL goes unstated.

QUERY: Reported AUC(0-t), molecule Nc1ccncc1N : ____
RESULT: 22.6

* * *

- PROCEDURE DETAILS: Example 18 Part 2: multiple dose PK (20 mg QID) of 3,4-DAP and 3-N-acetyl metabolite in slow and fast acetylators
- Type: in vivo, human
- APPLIED CONDITIONS: both sexes, human, plasma, oral, 20 mg, Day 3, Dose 3, slow acetylators, 20 mg QID; read-out: Mean Vz/F
MEASURED ENDPOINT: Vd/F

QUERY: Reported Vd/F, molecule Nc1ccncc1N [3,4-DAP, 3,4-diaminopyridine] : ____
RESULT: 241 L

* * *

- PROCEDURE DETAILS: Example 18 Part 2: multiple dose PK (20 mg QID) of 3,4-DAP and 3-N-acetyl metabolite in slow and fast acetylators
- Assay type: in vivo, human
- APPLIED CONDITIONS: both sexes, human, plasma, oral, 20 mg, Day 3, slow acetylators, Dose 3 interval, 20 mg QID, arith. mean; read-out: Vz/F
- Procedure: The following method was used to analyze concentrations of 3,4-diaminopyridine and N-(4-aminopyridin-3-yl)acetamide in plasma and urine samples for the experiments in Example 18. […] Samples were analyzed by using HPLC with positive ion electrospray MS/MS detection. […] The LC/MS/MS method was validated to quantify 3,4-DAP in human plasma in the linear calibration range of 0.500 to 500 ng/mL and from 1.00 to 1000 ng/mL for the 3-N-acetyl metabolite. […]
MEASURED ENDPOINT: Vd/F (L)
Write it as a number; the unit L goes unstated.

QUERY: Reported Vd/F, compound CC(=O)Nc1cnccc1N [3-N-acetyl amifampridine, N-(4-aminopyridin-3-yl)acetamide] : ____
RESULT: 68.1

* * *

- PROCEDURE DETAILS: Example 18 Part 2: multiple dose PK (20 mg QID) of 3,4-DAP and 3-N-acetyl metabolite in slow and fast acetylators
- Assay type: in vivo, human
- APPLIED CONDITIONS: both sexes, human, plasma, oral, 20 mg, Day 3, slow acetylators, Dose 3 interval, 20 mg QID, arith. mean; read-out: AUC0-4
MEASURED ENDPOINT: AUC(0-t) (ng·h/mL)
Write it as a number; the unit ng·h/mL goes unstated.

QUERY: Reported AUC(0-t), compound CC(=O)Nc1cnccc1N [3-N-acetyl amifampridine, N-(4-aminopyridin-3-yl)acetamide] : ____
RESULT: 802

* * *

- PROCEDURE DETAILS: Example 18 Part 2: multiple dose PK (20 mg QID) of 3,4-DAP and 3-N-acetyl metabolite in slow and fast acetylators
- Assay type: in vivo, human
- APPLIED CONDITIONS: both sexes, human, plasma, oral, 20 mg, Day 3, slow acetylators, Dose 3 interval, 20 mg QID, arith. mean; read-out: Tmax
MEASURED ENDPOINT: Tmax (h)
Write it as a number; the unit h goes unstated.

QUERY: Reported Tmax, molecule CC(=O)Nc1cnccc1N [3-N-acetyl amifampridine, N-(4-aminopyridin-3-yl)acetamide] : ____
RESULT: 1.2

* * *

- PROCEDURE DETAILS: Example 18 Part 2: multiple dose PK (20 mg QID) of 3,4-DAP and 3-N-acetyl metabolite in slow and fast acetylators
- Format: in vivo, human
- APPLIED CONDITIONS: both sexes, human, plasma, oral, 20 mg, Day 1, slow acetylators, Dose 3 interval, 20 mg QID, arith. mean; read-out: Vz/F
MEASURED ENDPOINT: Vd/F

QUERY: Reported Vd/F, molecule CC(=O)Nc1cnccc1N [3-N-acetyl amifampridine, N-(4-aminopyridin-3-yl)acetamide] : ____
RESULT: 71.5 L

* * *

- PROCEDURE DETAILS: Example 18 Part 2: multiple dose PK (20 mg QID) of 3,4-DAP and 3-N-acetyl metabolite in slow and fast acetylators
- Assay type: in vivo, human
- APPLIED CONDITIONS: both sexes, human, plasma, oral, 20 mg, Day 3, fast acetylators, Dose 2 interval, 20 mg QID, arith. mean; read-out: Vz/F
MEASURED ENDPOINT: Vd/F
// return the numeric value with its unit appended

QUERY: Reported Vd/F, molecule CC(=O)Nc1cnccc1N [3-N-acetyl amifampridine, N-(4-aminopyridin-3-yl)acetamide] : ____
RESULT: 36.6 L

* * *

- PROCEDURE DETAILS: Example 18 Part 2: multiple dose PK (20 mg QID) of 3,4-DAP and 3-N-acetyl metabolite in slow and fast acetylators
- Type: in vivo, human
- APPLIED CONDITIONS: both sexes, human, plasma, oral, 20 mg, Day 1, fast acetylators, Dose 1 interval, 20 mg QID, arith. mean; read-out: Tmax
MEASURED ENDPOINT: Tmax
// return the numeric value with its unit appended

QUERY: Reported Tmax, molecule CC(=O)Nc1cnccc1N [3-N-acetyl amifampridine, N-(4-aminopyridin-3-yl)acetamide] : ____
RESULT: 1.43 h

* * *

- PROCEDURE DETAILS: Example 18 Part 2: multiple dose PK (20 mg QID) of 3,4-DAP and 3-N-acetyl metabolite in slow and fast acetylators
- Assay type: in vivo, human
- APPLIED CONDITIONS: both sexes, human, plasma, oral, 20 mg, Day 1, slow acetylators, Dose 3 interval, 20 mg QID, arith. mean; read-out: Cmax
- Method: The following method was used to analyze concentrations of 3,4-diaminopyridine and N-(4-aminopyridin-3-yl)acetamide in plasma and urine samples for the experiments in Example 18. […] Samples were analyzed by using HPLC with positive ion electrospray MS/MS detection. […] The LC/MS/MS method was validated to quantify 3,4-DAP in human plasma in the linear calibration range of 0.500 to 500 ng/mL and from 1.00 to 1000 ng/mL for the 3-N-acetyl metabolite. […]
MEASURED ENDPOINT: Cmax

QUERY: Reported Cmax, molecule CC(=O)Nc1cnccc1N [3-N-acetyl amifampridine, N-(4-aminopyridin-3-yl)acetamide] : ____
RESULT: 240 ng/mL
